system: HT29 colon; assay: NCI-60 one-dose screen, 48 h (100 = growth as untreated, 0 = no growth, -100 = all killed); conditions: 10 µM unless noted
The panel holds about 83,000 compounds, 20% with a hit somewhere; the sample as a whole holds those more often.
Binary call on growth with cut-off 40%: strictly below means fulfilled, and equality or higher means not fulfilled.

Report whether reported growth is lower than 40% (strictly) for CCCNC(=S)N/N=C(\C)c1ccccn1
fulfilled

Report whether reported growth is lower than 40% (strictly) for CNC(=O)c1cc(Oc2ccc(NC(=O)c3nc(S(C)(=O)=O)n(C)c3-c3ccc(F)cc3)cc2)ccn1
not fulfilled

Report whether reported growth is lower than 40% (strictly) for CCC(=O)NC(O)C(Cl)(Cl)C(C)Cl (stereo not drawn)
not fulfilled

Report whether reported growth is lower than 40% (strictly) for COCCn1c(Nc2ccc(C(=O)NO)cc2)nc2ccccc21
not fulfilled

Report whether reported growth is lower than 40% (strictly) for Brc1ccccc1Cn1c(-c2cncs2)nc2ccccc21
not fulfilled

Report whether reported growth is lower than 40% (strictly) for COc1ccc(NC(=O)/C=C/c2ccc(Cl)c(Cl)c2)cn1
not fulfilled

Report whether reported growth is lower than 40% (strictly) for C[C@@H](C[C@H](CC1CC1)c1ccccc1)c1ccc2ccccc2c1
not fulfilled

Report whether reported growth is lower than 40% (strictly) for COc1ccc(Br)c2ccccc12
not fulfilled

Report whether reported growth is lower than 40% (strictly) for C#CC[C@@H]1C[C@]2(C)[C@H]3CC=C4[C@H]5[C@@H](C)[C@H](C)CC[C@]5(C(=O)NCCCCCCCCN)CC[C@@]4(C)[C@]3(C)CC[C@H]2C(C)(C)[C@H]1OC(C)=O
fulfilled

Report whether reported growth is lower than 40% (strictly) for CCCCN(CCCC)CCC(=O)c1ccc(OC)c2ccccc12
not fulfilled

Report whether reported growth is lower than 40% (strictly) for COc1cc(-c2n/c(=C\c3c(O)[nH]c4cc(Cl)ccc34)cc3c2=Nc2ccccc2-3)cc(OC)c1OC
fulfilled

Report whether reported growth is lower than 40% (strictly) for Clc1ccc2c(c1)-n1cccc1C(c1ccc3ccccc3c1)=NC2
not fulfilled

Report whether reported growth is lower than 40% (strictly) for CC[C@H](Nc1nc(C)nc(N)c1C#N)c1nc2cccc(NCc3ccc(C(=O)NO)cc3)c2c(=O)n1-c1ccccc1
fulfilled

====

tested on: CCRF-CEM leukemia; assay: NCI-60 one-dose screen, 48 h; settings: 10 µM unless noted
This is part of a sample that, as a whole, favours compounds with a hit. Of some 83,000 tested, about 20% had one in any assay. The source made the active and inactive calls. How the source made its calls: active means growth percent below 10; inactive means the rest.
Answer with one of the outcomes active, inactive

Which outcome was entered for the compound O=C1CC2(O)CSc3nc(=O)cc(n32)N1 (stereo unspecified) in this test?
inactive

Which outcome was entered for the compound Cc1nc2ccc(Nc3nc(N4CCOCC4)nc(N4CCN(C)CC4)n3)cc2n1Cc1ccccc1 in this test?
inactive

Which outcome was entered for the compound COc1c(-c2cc(-c3ccc(C)o3)[nH]c(=O)n2)c(O)cc2occc12 in this test?
inactive

Which outcome was entered for the compound CC1CCN(Cc2ccc(NC(=O)c3cc4ccc5cccnc5c4[nH]3)cc2)CC1 in this test?
active

Which outcome was entered for the compound Cc1[nH]nc2ccc3nc(-c4ccc5[nH]ncc5c4)c4c(c3c12)CCCC4 in this test?
inactive

Which outcome was entered for the compound CC(=O)N1N=C(c2ccc(C)cc2)CC1c1cn(-c2ccccc2)nc1-c1cccc(Nc2ccnc3cc(Cl)ccc23)c1 (stereo unspecified) in this test?
active

====

Provide the reported growth of each item.
tested on: SK-OV-3 ovarian; assay: NCI-60 one-dose screen, 48 h (100 = growth as untreated, 0 = no growth, -100 = all killed); conditions: 10 µM unless noted
About 83,000 compounds went through this panel and 20% of them were active in at least one assay; those are over-represented in the sample as a whole.
The reply should contain only the number, in %.

Can you look up the measured growth of CCN(CC)c1ccc2nc3c4ccccc4c(=O)cc-3n(-c3ccccc3)c2c1 for me?
3.71

Can you look up the measured growth of COC(=O)CNS(=O)(=O)c1ccc2c(c1)Cc1cc(S(=O)(=O)NCC(=O)OC)ccc1-2 for me?
97.7

Can you look up the measured growth of CCCc1cc2c(cc1CN(Cc1cc3c(cc1CCC)OCO3)C(=N)OCC)OCO2 for me?
92.7

Can you look up the measured growth of CCCCNCCC(O)c1cc2ccc(C(F)(F)F)cc2c2cc(C(F)(F)F)ccc12 (stereo not drawn) for me?
-34

Can you look up the measured growth of CC(=O)c1cc(C(=O)c2ccc3c(c2)Sc2ccccc2N3)c2c(C)cccn12 for me?
25.1

Can you look up the measured growth of ClCc1cccc(CSc2ncnc3c2ncn3Cc2cccc(CCl)c2)c1 for me?
65.5

Can you look up the measured growth of O=C(/C=C/c1cc([N+](=O)[O-])ccc1Cl)c1ccccc1 for me?
95.4

Can you look up the measured growth of N=c1n(Cc2ccccc2)c(N)cc(=O)n1Cc1ccccc1 for me?
21.4

====

System: OVCAR-5 ovarian
Test: NCI-60 one-dose screen, 48 h
Details: 10 µM unless noted
Description: Growth inhibition of the OVCAR-5 human tumor cell line is measured as a screen for anti-cancer activity. Cells are grown in 96 well plates and exposed to the test compound for 48 hours. Compounds are tested at a single concentration, which is 10^-5 M for most compounds. The reported endpoint is percent growth (GI% or GIPRCNT), where numbers from 0 - 100% represent growth inhibition, and numbers from -100% - 0 represent cell death. For example, a value of 40 represents 60% growth inhibition. […]
Compounds without any hit were thinned out: in the full panel of roughly 83,000, 20% have a hit. Activity calls are given as the source filed them. Rule for the calls: active = growth percent below 10; inactive = the rest.
Answer with one of the outcomes active, inactive

Which outcome was entered for the compound CN1CCN(Cc2ccc(NC(=O)c3cnc(F)c(C#Cc4cnc(N)c5ncccc45)c3)cc2C(F)(F)F)CC1 in this test?
inactive

Which outcome was entered for the compound COc1cc2c(cc1C)NC(=O)/C2=C\c1c[nH]c2ccccc12 in this test?
inactive

Which outcome was entered for the compound Cc1cc(C)cc(CCCCCCCCCCCCCCCCCC(=O)O)c1 in this test?
inactive

Which outcome was entered for the compound COc1cc2c(cc1OCCCOc1cc3c(cc1OC)C(=O)N1CCC[C@H]1C=N3)C=CC(C)(C)O2 in this test?
inactive

Which outcome was entered for the compound Clc1cn2cc(-c3ccc(Cl)c(Cl)c3Cl)nc2s1 in this test?
inactive

Which outcome was entered for the compound F in this test?
inactive

Which outcome was entered for the compound Cc1cc(NC(=O)C2c3ccccc3C(=O)N(CC(C)C)C2c2cccs2)no1 (stereo not drawn) in this test?
inactive

Which outcome was entered for the compound O=C(/C=C/c1ccccc1)n1c(-c2ccccc2)nc2ccccc21 in this test?
inactive

Which outcome was entered for the compound O=C1CC2(O)CSc3nc(=O)cc(n32)N1 (stereo not drawn) in this test?
inactive

Which outcome was entered for the compound C[C@@H](C[C@H](CC1CC1)c1ccccc1)c1ccc2ccccc2c1 in this test?
inactive

Which outcome was entered for the compound COc1ccc(/C=C2\Cc3c(Br)cccc3C2=O)c(OC)c1 in this test?
inactive

Which outcome was entered for the compound c1ccc(C(CC2=NCCCN2)c2ccccc2)cc1 in this test?
inactive

Which outcome was entered for the compound Cc1cc(NC(=O)c2ccc(N)cc2)ccc1N=Nc1ccc2cc(S(=O)(=O)O)cc(S(=O)(=O)O)c2c1 in this test?
inactive

Which outcome was entered for the compound COc1c(B(O)O)cccc1-c1nc2ccc3[nH]ncc3c2c2c1CCCC2 in this test?
inactive

Which outcome was entered for the compound CCCCCc1c(C)[nH]c(/C=C2\N=C(c3ccc[nH]3)C=C2CC)c1C in this test?
active

Which outcome was entered for the compound Fc1ccc(-c2ccnc3nc(-c4ccncc4)nn23)cc1 in this test?
inactive

Which outcome was entered for the compound COc1ccc(NC(=O)/C=C/c2ccc(NC(=O)N3CCCC3)cc2)cn1 in this test?
inactive

Which outcome was entered for the compound CCN(C)CCCOc1ccc(/C(=C(\C)Cc2cccc(OC)c2)c2ccc(OC(C)=O)cc2)cc1 in this test?
inactive

Which outcome was entered for the compound C=C(CN1CC=CCC1)[C@@H]1CC[C@]2(C(=O)OC)CC[C@]3(C)[C@H](CC[C@@H]4[C@@]5(C)CC[C@H](OC(C)=O)C(C)(C)[C@@H]5CC[C@]43C)[C@@H]12 in this test?
inactive

Which outcome was entered for the compound CCOC(=O)C(=CNc1ccccc1Cl)C(=O)OCC in this test?
inactive

Which outcome was entered for the compound COS(=O)(=O)CCN(CCOS(C)(=O)=O)S(C)(=O)=O in this test?
inactive

Which outcome was entered for the compound COc1ccc(-c2[nH]nc(N)c2-c2cc(OC)c(OC)c(OC)c2)cc1 in this test?
inactive

Which outcome was entered for the compound c1ccc2c(Cc3csc4ccccc34)csc2c1 in this test?
inactive

Which outcome was entered for the compound COc1ccc2nc(NC(=O)/C(=C/c3cc(OC)c(OC)c(OC)c3)c3ccc(OC)c(OC)c3)sc2c1 in this test?
inactive

Which outcome was entered for the compound O=c1[nH]c2ccccc2n2cc3cccnc3c12 in this test?
inactive

Which outcome was entered for the compound COc1cccc2nc(Nc3cccc(NC(=O)c4cc(N5CCOCC5)cc(C(F)(F)F)c4)c3)ccc12 in this test?
inactive

Which outcome was entered for the compound N#CC1=C(N)Oc2nc[nH]c(=O)c2C1c1cccs1 (stereo not drawn) in this test?
inactive

Which outcome was entered for the compound CCN(C(=O)Nc1cccc2ccccc12)c1ccccc1 in this test?
inactive

Which outcome was entered for the compound CNCc1ccccc1CN(CC(=O)Nc1ccc2c(c1)CC1(C2)C(=O)Nc2ncccc21)C(=O)C(C)(C)C (stereo not drawn) in this test?
inactive

Which outcome was entered for the compound CC(=O)c1cc(C(=O)c2ccc3c(c2)Sc2ccccc2N3)c2c(C)cccn12 in this test?
inactive

Which outcome was entered for the compound CCCCCNCCCCCNc1cc(OC)cc2cccnc12 in this test?
inactive

Which outcome was entered for the compound COc1ccc(C(=O)C(C#N)c2cc(OC)c(OC)c(OC)c2)cc1 (stereo not drawn) in this test?
inactive

Which outcome was entered for the compound CCOC(=O)C(Nc1ccccc1)C(=O)OCC in this test?
inactive

These measurements were taken from PubChem BioAssay (NCI).
